Target: T1, human pIgR, full-length, on cells (human, UniProt P01833 19-764)
T1 construct: whole, on cells; Used for the flow cytometry EC50 values (MDCK-hpIgR) and for the transcytosis read-outs; also called hpIgR; cell-surface hpIgR
T1 sequence (P01833 19-764): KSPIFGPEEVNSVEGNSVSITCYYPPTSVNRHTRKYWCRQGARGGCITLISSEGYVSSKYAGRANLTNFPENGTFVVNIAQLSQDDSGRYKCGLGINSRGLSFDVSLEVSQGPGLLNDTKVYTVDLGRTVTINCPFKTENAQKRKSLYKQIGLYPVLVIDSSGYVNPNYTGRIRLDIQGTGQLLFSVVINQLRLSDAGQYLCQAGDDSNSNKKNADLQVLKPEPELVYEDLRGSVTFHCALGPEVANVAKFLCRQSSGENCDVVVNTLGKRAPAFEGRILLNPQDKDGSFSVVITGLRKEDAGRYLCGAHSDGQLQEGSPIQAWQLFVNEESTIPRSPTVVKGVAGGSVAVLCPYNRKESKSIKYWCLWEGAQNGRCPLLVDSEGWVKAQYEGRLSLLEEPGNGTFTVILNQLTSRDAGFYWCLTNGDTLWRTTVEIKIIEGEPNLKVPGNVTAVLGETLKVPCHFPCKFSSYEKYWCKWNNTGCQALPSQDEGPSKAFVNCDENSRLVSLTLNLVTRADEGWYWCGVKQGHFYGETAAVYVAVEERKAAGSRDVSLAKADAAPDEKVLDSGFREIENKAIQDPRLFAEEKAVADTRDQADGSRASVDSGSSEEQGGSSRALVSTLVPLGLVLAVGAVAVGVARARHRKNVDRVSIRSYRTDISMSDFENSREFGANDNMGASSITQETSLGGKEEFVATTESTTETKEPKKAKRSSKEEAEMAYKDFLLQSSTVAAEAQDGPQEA
Assay: flow cytometry on MDCK-hpIgR cells
propertyName: pEC50
Kindly note that pEC50 refers to -log10 of the concentration in mol/L and answer with the value alone.

>>> recordedresult("VHH3-linker-mono-Fc protein (Fc fusion, made in CHO cells; also called VHH3-mono-Fc; hpIgR_021) QLQLVESGGGLVQPGGSLRLSCAASGSIFSINVMGWYRQAPGKQRELVARINGGGITHYAESVKGRFTISRDNAKNTVYLQMNSLKPEDTAAYYCKADVFGSSGYVETYWGQGTQVTVSSEPKTPKPQPQPQLQPQPNPTTESKSPKSPAPELLGGPSVFLFPPKPKDTLMISRTPEVTCVVVDVSHEDPEVKFNWYVDGVEVHNAKTKPREEQYNSTYRVVSVLTVLHQDWLNGKEYKCKVSNKALPAPIEKTISKAKGQPREPQVYTKPPSREEMTKNQVSLSCLVKGFYPSDIAVEWESNGQPENNYKTTVPVLDSDGSFRLASYLTVDKSRWQQGNVFSCSVMHEALHNHYTQKSLSLSPGK")
8.19

Now consider the entry below.
# get_value(readout='pEC50', item= VHH9-linker-mono-Fc protein (Fc fusion, made in CHO cells; also called VHH9-mono-Fc; hpIgR_221) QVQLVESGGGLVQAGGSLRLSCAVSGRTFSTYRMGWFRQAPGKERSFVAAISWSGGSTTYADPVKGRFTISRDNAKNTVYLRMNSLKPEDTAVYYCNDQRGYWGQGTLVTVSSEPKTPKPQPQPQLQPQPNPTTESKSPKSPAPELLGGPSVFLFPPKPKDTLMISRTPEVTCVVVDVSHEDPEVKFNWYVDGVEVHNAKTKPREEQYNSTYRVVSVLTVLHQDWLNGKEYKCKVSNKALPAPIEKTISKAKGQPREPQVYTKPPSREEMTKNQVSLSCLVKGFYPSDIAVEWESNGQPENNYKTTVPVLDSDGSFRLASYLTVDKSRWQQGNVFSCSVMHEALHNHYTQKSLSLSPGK )
8.82
